- System: NCI/ADR-RES ovarian
- procedure-details: NCI tumour cell line growth inhibition, 48 h
observable: GI50

stdin: Which GI50 is reported for this compound? COc1ccc(/C=C/C(=O)c2ccc(Cl)cc2Cl)cc1
stdout: 15.9 µM

stdin: Which GI50 is reported for this compound? C=CC(C)c1cccc(C=O)c1O (stereo unspecified)
stdout: 19.6 µM

stdin: Which GI50 is reported for this compound? N#Cc1cnc(=O)n(C2CC(O)C(CO)O2)c1 (stereo unspecified)
stdout: > 100 µM

stdin: Which GI50 is reported for this compound? C/C(=N\[N+](C)(C)C)c1ccc(C)c(C)c1
stdout: > 100 µM

stdin: Which GI50 is reported for this compound? CC(=O)Nc1c(Br)cc2c(c1Br)Cc1cc(Br)ccc1-2
stdout: 3.38 µM

stdin: Which GI50 is reported for this compound? O=C(NC1CCCCC1)OCc1c(COC(=O)NC2CCCCC2)c(-c2ccc(Cl)c(Cl)c2)n2c1CCC2
stdout: 4.24 µM

* * *

- System: SK-MEL-28 melanoma
- procedure-details: NCI tumour cell line growth inhibition, 48 h
observable: TGI

stdin: Which TGI is reported for this compound? COc1ccccc1/C=C1\C(=O)N(C(=O)c2ccc(NC(C)=O)cc2)N=C1C
stdout: > 100 µM

stdin: Which TGI is reported for this compound? C[C@@H](c1ccccc1)C(CC#N)[C@H]1CCC[C@]1(O)C#Cc1ccc2c(c1)OCO2 (stereo not given in full)
stdout: 30.1 µM

stdin: Which TGI is reported for this compound? O=[N+]([O-])c1ccc2sc(C=Nc3ccc(O)cc3)cc2c1
stdout: > 100 µM

stdin: Which TGI is reported for this compound? Clc1ccccc1CN1COc2c(cc(Cl)c3cccnc23)C1
stdout: 25.9 µM

stdin: Which TGI is reported for this compound? S=c1oc(CCCCCCCCc2nn(CNc3ccccc3)c(=S)o2)nn1CNc1ccccc1
stdout: > 100 µM

stdin: Which TGI is reported for this compound? CC1(C)COP(=S)(c2ccccn2)O[C@@H]1c1ccccc1 (stereo not given in full)
stdout: > 100 µM

stdin: Which TGI is reported for this compound? O=S(=O)(Nc1ccc(Cl)c(F)c1)c1ccc(-c2cnc(C3CC3)o2)cc1
stdout: 17.4 µM

stdin: Which TGI is reported for this compound? CCN(Cc1ccccn1)c1ccc(CO)c(Cl)c1
stdout: > 100 µM

stdin: Which TGI is reported for this compound? Cc1c(-c2c(C)c(=O)c3c(C(C)C)c(=O)c(=O)c(C=O)c-3c2=O)c(O)c2c(C=O)c(O)c(O)c(C(C)C)c2c1O
stdout: 16.4 µM

stdin: Which TGI is reported for this compound? CCn1c(=O)nc2n(-c3ccccc3)c3ccccc3nc-2c1=O
stdout: > 100 µM

* * *

- Tested on: HCT-116 colon
- procedure-details: NCI tumour cell line growth inhibition, 48 h
observable: TGI

stdin: Which TGI is reported for this molecule? Cc1c(-c2c(C)c(=O)c3c(C(C)C)c(=O)c(=O)c(C=O)c-3c2=O)c(O)c2c(C=O)c(O)c(O)c(C(C)C)c2c1O
stdout: 7.81 µM

stdin: Which TGI is reported for this molecule? Cc1ccc(Nc2nc3ccccc3c(=O)n2N)cc1
stdout: > 100 µM

stdin: Which TGI is reported for this molecule? COc1ccc2cc1Oc1ccc(cc1)CC1c3cc(OC)c(cc3CCN1C)Oc1c(OC)c(OC)cc3c1C(C2)N(C)CC3 (stereo not drawn)
stdout: > 75 µM

stdin: Which TGI is reported for this molecule? COc1ccc(C(=O)c2cc(OC)c(OC)c(OC)c2)cc1OC(=O)C(Cl)(Cl)Cl
stdout: > 100 µM

stdin: Which TGI is reported for this molecule? O=C1OC(c2ccccc2)=N/C1=C\c1ccc(Br)cc1
stdout: > 100 µM

stdin: Which TGI is reported for this molecule? N#C/C(=C\Nc1ccccn1)C(=O)C1CC1
stdout: > 100 µM

stdin: Which TGI is reported for this molecule? COc1cc2nc3c(=C(C#N)C#N)c4ccccc4n3c(=O)c2cc1OC
stdout: > 100 µM

stdin: Which TGI is reported for this molecule? N#CCCC1(CCC#N)CCCCCCC(CCC#N)(CCC#N)C(=O)C1=O
stdout: > 100 µM

stdin: Which TGI is reported for this molecule? CC(CO)CCNc1ncnc2c1ncn2CCC#N (stereo not drawn)
stdout: > 100 µM

stdin: Which TGI is reported for this molecule? O=[N+]([O-])c1cccc2nc3ccccc3c(NCCN(CCO)CCO)c12
stdout: 0.0311 µM

stdin: Which TGI is reported for this molecule? Cc1ccc2cc3c(cc(C)c4ccccc43)c3c2c1CC3
stdout: > 100 µM

stdin: Which TGI is reported for this molecule? O=C(O)/C=C\C(=O)c1ccc(Cl)cc1
stdout: > 58.8 µM

stdin: Which TGI is reported for this molecule? CN(C)c1ccc(/C=C(\NC(=O)c2ccccc2)C(=O)Nc2ccccc2C(=O)NCc2ccccc2)cc1
stdout: > 100 µM

stdin: Which TGI is reported for this molecule? COC1CC(Br)(C#N)C1 (stereo not drawn)
stdout: > 100 µM

stdin: Which TGI is reported for this molecule? O=C(CSc1ncnc2nc[nH]c12)c1ccccc1
stdout: > 100 µM

stdin: Which TGI is reported for this molecule? O=C(CCN1CCOCC1)c1ccc(Oc2ccc(F)cc2)cc1
stdout: 44.2 µM

stdin: Which TGI is reported for this molecule? O=C1CSC2=NC3=C(CSC/C3=C\c3ccc(Cl)cc3)C(c3ccc(Cl)cc3)N12 (stereo not drawn)
stdout: 29 µM

stdin: Which TGI is reported for this molecule? COc1cc(COC(=O)N2CSCC2C(=O)O)c([N+](=O)[O-])cc1OC (stereo not drawn)
stdout: > 100 µM

stdin: Which TGI is reported for this molecule? CCOP(=O)(CN1CCNCCN(CP(=O)(OCC)OCC)CC1)OCC
stdout: > 100 µM

stdin: Which TGI is reported for this molecule? COC(=O)C(CCCCCCCC(C(=O)OC)c1nc2n(c1O)C(=N)N=N2)c1nc2n(c1O)C(=N)N=N2 (stereo not drawn)
stdout: > 100 µM

stdin: Which TGI is reported for this molecule? Oc1ccc[n+](Cc2ccccc2)c1
stdout: > 100 µM

stdin: Which TGI is reported for this molecule? O=C(Nc1sccc1S(=O)(=O)c1ccc(Cl)cc1)c1ccc(Cl)cc1
stdout: > 100 µM

stdin: Which TGI is reported for this molecule? O=C(OCCO)C1CC2CC1C1(C2)OCCO1 (stereo not drawn)
stdout: > 100 µM

stdin: Which TGI is reported for this molecule? Cc1ccc(-c2nc3nc(-c4ccc(Br)cc4)nc(N4CCCNCC4)c3o2)cc1
stdout: 3.36 µM

stdin: Which TGI is reported for this molecule? O=C(/C=C\Sc1ccccn1)c1cccc(Br)c1
stdout: 3.85 µM

stdin: Which TGI is reported for this molecule? CCCC(=O)OCC1OC(n2cnc3c(=S)nc(N)[nH]c32)C(OC(=O)CCC)C1OC(=O)CCC (stereo not drawn)
stdout: 19.8 µM

stdin: Which TGI is reported for this molecule? CCCNC1=C(C)C(=O)C2=C(C1=O)[C@H](COC(N)=O)[C@]1(OC)[C@@H]3N[C@@H]3CN21
stdout: 32.2 µM

stdin: Which TGI is reported for this molecule? Cc1ccc(N2CN3OC(=O)N(c4ccccc4)[C@@]3(c3ccccc3)C2)cc1
stdout: > 100 µM

stdin: Which TGI is reported for this molecule? O=C1c2ccccc2C(=O)N1CCCC(=O)n1cc(F)c(=O)[nH]c1=O
stdout: > 100 µM

stdin: Which TGI is reported for this molecule? O=P1(N(CCCl)CCCl)Oc2ccc(Cl)cc2Sc2c(ccc(Cl)c2Cl)O1 (stereo not drawn)
stdout: 74.6 µM

stdin: Which TGI is reported for this molecule? CCOC(=O)C(=Cc1ccccc1Cl)C(=O)OCC
stdout: 1.88 µM

stdin: Which TGI is reported for this molecule? CC1NOC(=O)C1N=Nc1ccccc1Br (stereo not drawn)
stdout: 92.8 µM

stdin: Which TGI is reported for this molecule? Cc1nc2c(o1)C(=Nc1ccccc1)c1ccccc1C2=Nc1ccccc1
stdout: > 100 µM

stdin: Which TGI is reported for this molecule? CC1CCC2(OC1)OC1CC3C4CCC5CC(O)CCC5(C)C4CC(=O)OC3(C)C1C2C (stereo not drawn)
stdout: > 100 µM

stdin: Which TGI is reported for this molecule? O=C1c2c(c(-c3ccccc3)c(-c3ccccc3)c(-c3ccccc3)c2-c2ccccc2)C(=O)N1c1cccc(Br)c1
stdout: > 100 µM

stdin: Which TGI is reported for this molecule? O=C(O)c1cccc(SSc2cccc(C(=O)O)c2)c1
stdout: > 100 µM

stdin: Which TGI is reported for this molecule? C=CC[C@@]1(OC(C)=O)C(=O)C(=O)OC1C1COC(C)(C)O1 (stereo partly drawn)
stdout: 26.6 µM

stdin: Which TGI is reported for this molecule? O=C(Cc1ccccc1CCO)NCCc1ccccc1
stdout: > 100 µM

stdin: Which TGI is reported for this molecule? COC(=O)[C@]1(c2cc3ccccc3[nH]2)CC2CN(C(=O)OCc3ccccc3)C1C=C2OC (stereo partly drawn)
stdout: > 100 µM

stdin: Which TGI is reported for this molecule? C/C(=N\OCC(O)CNC(C)C)c1ccc2c(c1)NC(=O)CS2 (stereo not drawn)
stdout: > 100 µM

stdin: Which TGI is reported for this molecule? COc1cc(-c2nn(-c3ccc(NC(=O)NCCNS(=O)(=O)c4ccc(F)cc4)cc3)cc2-c2ccncc2)ccc1Cl
stdout: 1.77 µM

stdin: Which TGI is reported for this molecule? COc1ccc(OC)c(/C=C/C(=O)N/N=C/c2ccccc2)c1
stdout: 10.2 µM

stdin: Which TGI is reported for this molecule? COc1ccc(/C=C/c2cc(OC)c(OC)c(OC)c2)cc1O[Si](C)(C)C(C)(C)C
stdout: 14.2 µM
